Cited source: patent US9593122B2

- Tested on: Echinochloa crus-galli
- RUN DESCRIPTION: Paddy herbicidal activity test
- Type: in vivo
- DETAILS: 1g a.i./10a; irrigated paddy pot, treated at 3.5 leaf stage of Echinochloa crus-galli, 30 days
READOUT NAME: Echinochloa crus-galli herbicidal efficacy (growth inhibition level)

Data request: Quick one: give measured Echinochloa crus-galli herbicidal efficacy (growth inhibition level) for `C=C(C)CN(C(=O)C(F)(F)F)c1c(C#N)cnn1-c1nn2c(c1Cl)CCCC2`
Data returned: 9 (9: 90% to less than 100%)

Data request: State, in one line, measured Echinochloa crus-galli herbicidal efficacy (growth inhibition level) of CC=CCNc1c([N+](=O)[O-])cnn1-c1nn2c(c1Br)CCCC2 (mixture of isomers)
Data returned: 9 (9: 90% to less than 100%)

Data request: Quick one: give measured Echinochloa crus-galli herbicidal efficacy (growth inhibition level) for C#CCNc1c(C#N)cnn1-c1nn2c(c1Cl)CCCC2 [Control agent 4.85, 4.156, reference compound]
Data returned: 2 (2: 20% to less than 30%)

Data request: For the compound N#Cc1cnn(-c2nn3c(c2Br)CCCC3)c1NCC(Cl)=CCl (mixture of isomers) , give its reported Echinochloa crus-galli herbicidal efficacy (growth inhibition level).
Data returned: 7 (7: 70% to less than 80%)

Data request: Annotate the compound `C=C(Cl)CNc1c(C#N)cnn1-c1nn2c(c1Cl)CCCC2` with its measured Echinochloa crus-galli herbicidal efficacy (growth inhibition level).
Data returned: 9 (9: 90% to less than 100%)

Data request: Give the value of Echinochloa crus-galli herbicidal efficacy (growth inhibition level) reported for the following: `CC(C)=CCNc1c([N+](=O)[O-])cnn1-c1nn2c(c1Cl)CCCC2`
Data returned: 9 (9: 90% to less than 100%)

Data request: Give Echinochloa crus-galli herbicidal efficacy (growth inhibition level) for the following compound: `C=CCN(C(=O)C(F)(F)F)c1c(C#N)cnn1-c1nn2c(c1Cl)CCCC2`
Data returned: 9 (9: 90% to less than 100%)

Data request: Tell us which Echinochloa crus-galli herbicidal efficacy (growth inhibition level) value is on record for `O=C(N(C/C=C\Cl)c1c([N+](=O)[O-])cnn1-c1nn2c(c1Cl)CCCC2)C(F)(F)F`
Data returned: 9 (9: 90% to less than 100%)
